test: Oxidation and reduction potentials by CV (HOMO, LUMO); assay type: physicochemical; conditions: Ox. in DCM, in eV (unit assumed)
Listing: HOMO of selected molecules

Some molecules with known HOMO results, for comparison:
molecule | HOMO
c1ccc(-c2cc(-c3ccccc3)cc(-c3cccc(-c4cc[c]5c(c4)-c4cccc[n+]4[Ir-3]546([c]5ccc(-c7cccc(-c8cc(-c9ccccc9)cc(-c9ccccc9)c8)c7)cc5-c5cccc[n+]54)[c]4ccc(-c5cccc(-c7cc(-c8ccccc8)cc(-c8ccccc8)c7)c5)cc4-c4cccc[n+]46)c3)c2)cc1 [Ir1, reference compound] | −5.09
Cc1cc2[n+](cc1-c1ccccc1)[Ir-3]13([c]4ccccc4-c4cccc[n+]41)([c]1ccccc1-c1cccc[n+]13)[c]1ccccc1-2 [Ir2, reference compound] | −5.05
O=C1Oc2cc3cc(c2)OC(=O)c2ccc4[c](c2)[Ir-3]25([c]6cc1ccc6-c1cccc[n+]12)([c]1cc(ccc1-c1cccc[n+]15)C(=O)O3)[n+]1ccccc1-4 | −5.66

For the next question, use this molecule.
If you can, please state the reported HOMO value of CN1C(=O)c2ccc3[c](c2)[Ir-3]245([c]6cc(ccc6-c6cccc[n+]62)C(=O)N(C)c2cc1cc(c2)N(C)C(=O)c1ccc([c]4c1)-c1cccc[n+]15)[n+]1ccccc1-3 .
−5.34
